Hello, the source for this data is PubChem BioAssay (NCI), in case you need it.

test system: LOX IMVI melanoma; experiment: NCI tumour cell line growth inhibition, 48 h
Below is a list of entries, each paired with its recorded TGI value.

COMPOUND: O=c1c(Cc2ccc(Cl)cc2)nnc2sc(-c3ccc(-c4ccc(Cl)cc4Cl)o3)nn12
TGI: > 100 µM

COMPOUND: Cc1ccc(NC(=O)CCc2n[nH]c(=S)o2)cc1
TGI: > 100 µM

COMPOUND: O=c1[nH]c(NCc2ccc(Cl)cc2)nc2nc[nH]c12
TGI: > 100 µM

COMPOUND: CN(C)c1ccc(/C=N/S(=O)(=O)c2ccc(-n3c(-c4ccccc4)nc4c(Br)cc(Br)cc4c3=O)cc2)cc1
TGI: > 100 µM

COMPOUND: Cc1ccc(-n2nnnc2-c2cnc(N3CCOCC3)nc2-c2cccc(C(F)(F)F)c2)cc1
TGI: 7.53 µM

COMPOUND: N/C1=C/C(=O)NC(=O)c2c(c3ccccc3oc2=O)C1
TGI: > 100 µM

COMPOUND: O=C1OC(=O)C2C3C=CC(C12)C1C2C=CC2C31 (stereo not given)
TGI: > 100 µM

COMPOUND: COc1ccc(C2C(=O)c3c(OC)cc(OC)cc3OC2c2cccnc2)cc1 (stereo not given)
TGI: > 100 µM

COMPOUND: OCCN(CCO)c1cccc(N(CCO)CCO)n1
TGI: > 100 µM

COMPOUND: C/C(=N\NC(=S)N1CCCCCC1)c1cccc2cccnc12
TGI: 27.1 µM

COMPOUND: CC(C)(C)N/N=C(\C(=O)NC1=C(Cl)C(=O)c2ccccc2C1=O)C1C=CCS1(=O)=O (stereo not given)
TGI: 39.7 µM

COMPOUND: C(=Nc1ccc(-c2nc3ccccc3s2)cc1)c1ccc[nH]1
TGI: 33.3 µM

COMPOUND: O=C1CC/C(=C/COc2cc(=O)oc3ccccc23)O1
TGI: 19.7 µM

COMPOUND: CCCCCCCCCCCCCCCCNc1ccn(C2CC(O)C(COC(c3ccccc3)(c3ccccc3)c3ccc(OC)cc3)O2)c(=O)n1 (stereo not given)
TGI: > 100 µM

COMPOUND: COc1cccc(N2C(=O)C3C4C=C5c6ccccc6N(c6ccccc6)C5(C3C2=O)[C@H]2C(=O)N(c3cccc(OC)c3)C(=O)[C@@H]42)c1 (stereo not given in full)
TGI: > 100 µM

COMPOUND: COc1cnc2c(c1)C(=O)c1c-2n(CCCN2CCC(O)CC2)c(=O)c2cc(Cl)ccc12
TGI: 1.46 µM

COMPOUND: O=C(Nc1ccc(S(=O)(=O)/N=c2\ncccn2C(=O)C(C(F)(F)F)C(F)(F)F)cc1)C(C(F)(F)F)C(F)(F)F
TGI: > 100 µM

COMPOUND: CCc1c(-c2ccc(OC)cc2)oc(OC)c(C)c1=O
TGI: > 100 µM

COMPOUND: CN(CCNC(=O)c1c[nH]c2c1Cc1ccccc1-2)CCNC(=O)c1c[nH]c2c1Cc1ccccc1-2
TGI: > 100 µM

COMPOUND: O=C(CC1C=Cc2ccccc2N1C(=O)c1ccccc1)c1ccccc1 (stereo not given)
TGI: 67.8 µM

###

Below is a list of entries, each paired with its recorded TGI value.
tested on: UACC-257 melanoma; experiment: NCI tumour cell line growth inhibition, 48 h

MOLECULE: COc1ccc(NC(=O)CC(=O)n2nc(C)c(N=Nc3ccccc3C(=O)O)c2C)cc1
ASSAY_SYSTEM: UACC-257 melanoma
TGI: > 100 µM

MOLECULE: C=C=CC(NC(=O)c1ccccc1)(C(=O)O)C(F)(F)F (stereo not given)
ASSAY_SYSTEM: UACC-257 melanoma
TGI: > 100 µM

MOLECULE: Cc1ccc(C2NC(=O)c3ccccc3N2)c(C)c1 (stereo not given)
ASSAY_SYSTEM: UACC-257 melanoma
TGI: > 100 µM

MOLECULE: CC(C)c1ccccc1SCc1cc(=O)cc(CSc2ccccc2C(C)C)o1
ASSAY_SYSTEM: UACC-257 melanoma
TGI: 51 µM

MOLECULE: CC(=O)NC1=NC(=O)/C(=C/c2ccc(/C=C3/C(=O)N=C(NC(C)=O)N3C)cc2)N1C
ASSAY_SYSTEM: UACC-257 melanoma
TGI: > 100 µM

MOLECULE: COc1c(N2CCN(CN3C(=O)C(=O)c4cc(Cl)ccc43)C(C)C2)c(F)cc2c(=O)c(C(=O)O)cn(C3CC3)c12 (stereo not given)
ASSAY_SYSTEM: UACC-257 melanoma
TGI: 72.9 µM

MOLECULE: COC1CC(N)C(O)C(C)O1 (stereo not given)
ASSAY_SYSTEM: UACC-257 melanoma
TGI: > 100 µM

MOLECULE: C[C@H](CCC1SC1(C)C)C1CCC2(C)C3=C(CC[C@]12C)[C@@]1(C)CC[C@H](O)C(C)(C)C1CC3 (stereo not given in full)
ASSAY_SYSTEM: UACC-257 melanoma
TGI: > 100 µM

MOLECULE: NC(CSSCC(N)C(=O)O)C(=O)O (stereo not given)
ASSAY_SYSTEM: UACC-257 melanoma
TGI: > 100 µM

MOLECULE: Cc1ccc2nc(-c3ccc(C(C)(C)C)cc3)oc(=O)c2c1
ASSAY_SYSTEM: UACC-257 melanoma
TGI: 46.2 µM

###

test system: RXF-631 renal; assay: NCI tumour cell line growth inhibition, 48 h

MOLECULE: COc1cccc(N2C(=O)C3C4C=C5c6ccccc6N(c6ccccc6)C5(C3C2=O)[C@H]2C(=O)N(c3cccc(OC)c3)C(=O)[C@@H]42)c1 (stereo partly drawn)
TGI: > 100 µM

MOLECULE: C=C(C(=C)P(=S)(C(C)C)C(C)C)P(=S)(C(C)C)C(C)C
TGI: > 100 µM

MOLECULE: NC(=O)CC(N=Cc1nc(-c2ccccc2)oc1O)C(=O)O (stereo not drawn)
TGI: > 100 µM

MOLECULE: COc1ccc(C(=O)C#Cc2c[nH]c(=O)[nH]c2=O)cc1
TGI: 34.1 µM

MOLECULE: O=C(NCCCl)SCCO
TGI: > 100 µM

MOLECULE: OCCN(CCO)c1cccc(N(CCO)CCO)n1
TGI: > 100 µM

MOLECULE: CC(C)N(C(=O)C12C3C4C1C1C2C3C41C(N)=O)C(C)C (stereo not drawn)
TGI: > 100 µM

MOLECULE: O=C1CCCCC12CCC/C2=N\O (stereo not drawn)
TGI: > 100 µM

###

Below is a list of entries, each paired with its recorded TGI value.
system: NCI-H23 lung; assay: NCI tumour cell line growth inhibition, 48 h
OBSERVATION_TYPE: TGI

COMPOUND: CC1=Nc2c([nH]c(=S)[nH]c2=O)NC(c2c(Cl)cccc2Cl)C1 (centres undefined)
MEAS_VALUE: 7.4 µM
//
COMPOUND: CCn1c2ccccc2c2c(-c3ccccc3)cc3c(c21)C(=O)N(c1ccccc1)C3=O
MEAS_VALUE: > 100 µM
//
COMPOUND: COc1c(N2CCN(CN3C(=O)C(=O)c4cc(Cl)ccc43)C(C)C2)c(F)cc2c(=O)c(C(=O)O)cn(C3CC3)c12 (centres undefined)
MEAS_VALUE: > 100 µM
//
COMPOUND: Cn1cc(S(=O)(=O)NC(=O)Nc2ccc(Cl)cc2)c(=O)c2ccc(F)cc21
MEAS_VALUE: > 100 µM
//
COMPOUND: O=C1CN(c2cccc(Cl)c2)C(=O)CN1NCNN1CC(=O)N(c2cccc(Cl)c2)CC1=O
MEAS_VALUE: > 100 µM
//
COMPOUND: COC(=O)Cc1cc(=O)[nH]c2c1C(=O)CCC2
MEAS_VALUE: > 100 µM
//
COMPOUND: Cc1ccc(C2NC(=O)c3ccccc3N2)c(C)c1 (centres undefined)
MEAS_VALUE: > 87 µM
//
COMPOUND: COCCOCCOCc1n(Cc2ccc3ccccc3n2)c2ccccc2[n+]1Cc1ccc2ccccc2n1
MEAS_VALUE: 12.2 µM
//
COMPOUND: COc1cc(C)c2sc3ccccc3c(=O)c2c1NCCN(C)C
MEAS_VALUE: 28 µM
//
COMPOUND: O=C(SCc1cccc2ccccc12)c1ccc(Cl)cc1
MEAS_VALUE: > 100 µM
//
COMPOUND: CC(=O)/C=C/c1ccc(OCc2ccc(Cl)cc2)cc1
MEAS_VALUE: > 1000 µM
//
COMPOUND: CCOc1ccc2c(c1)c(CC(=O)O)cn2C
MEAS_VALUE: > 100 µM
//
COMPOUND: Cc1c2c(c(C)c3c1[nH]c1ccccc13)CN(C)CC2
MEAS_VALUE: 56.3 µM
//
COMPOUND: CC(C)=CC[C@]12CCN(C)[C@H]1N(S(=O)(=O)c1ccccc1)c1ccccc12
MEAS_VALUE: > 100 µM
//
COMPOUND: NCCN1C(=O)c2ccccc2C1c1ccc(Cl)cc1 (centres undefined)
MEAS_VALUE: > 100 µM
//
COMPOUND: CCCCCCNCc1cc(C(C)(C)C)cc(CNCCCCCC)c1O
MEAS_VALUE: 3.29 µM
//
COMPOUND: CN(C)c1ccc(/C=N/S(=O)(=O)c2ccc(-n3c(-c4ccccc4)nc4c(Br)cc(Br)cc4c3=O)cc2)cc1
MEAS_VALUE: 92.6 µM
//
COMPOUND: C[C@@H]1CC(=O)C[C@@H]2CC[C@H]3[C@@H]4CC[C@H](OC(=O)c5cccc6cc7ccccc7nc56)[C@H]4CC[C@@H]3[C@H]21
MEAS_VALUE: 30.4 µM
//
COMPOUND: [N-]=[N+]=CC(=O)OCCCCl
MEAS_VALUE: > 100 µM
//
COMPOUND: C#CCN(Cc1ccc2nc(-c3ccccc3)c(N)nc2c1)c1cc(OC)c(OC)c(OC)c1
MEAS_VALUE: > 100 µM
//
COMPOUND: N#Cc1cccc(C=NC23CC4CC(CC(C4)C2)C3)c1
MEAS_VALUE: > 100 µM
//
COMPOUND: CCCCCCCCCCCc1c(O)c(=O)c2c(oc3c(=O)c(CCCCCCCCCCC)c(O)c(=O)c3n2-c2ccc(N(C)C)cc2)c1=O
MEAS_VALUE: 47.1 µM
//
COMPOUND: COc1cc2c(/C=C3/C(=O)Nc4ccc(Cl)cc43)c(Cl)[nH]c2cc1C
MEAS_VALUE: 7.13 µM
//
COMPOUND: Cc1ccc(-n2nnnc2-c2cnc(N3CCOCC3)nc2-c2cccc(C(F)(F)F)c2)cc1
MEAS_VALUE: 4.11 µM
//
COMPOUND: CN(CCNC(=O)c1c[nH]c2c1Cc1ccccc1-2)CCNC(=O)c1c[nH]c2c1Cc1ccccc1-2
MEAS_VALUE: > 100 µM
//
COMPOUND: CCC1(CN(C)C)CC/C(=C\c2ccc(OC)c(OC)c2)C1=O (centres undefined)
MEAS_VALUE: > 100 µM
//
COMPOUND: CCCCCCCCCCCCCCCCNc1ccn(C2CC(O)C(COC(c3ccccc3)(c3ccccc3)c3ccc(OC)cc3)O2)c(=O)n1 (centres undefined)
MEAS_VALUE: > 100 µM
//
COMPOUND: O=c1[nH]c(=O)n(COCc2ccccc2)cc1Nc1ccc(Br)cc1
MEAS_VALUE: > 100 µM
//
COMPOUND: COc1cccc(SSc2cccc(OC)c2C(=O)O)c1C(=O)O
MEAS_VALUE: > 100 µM
//
COMPOUND: NC(=O)CC(N=Cc1nc(-c2ccccc2)oc1O)C(=O)O (centres undefined)
MEAS_VALUE: > 100 µM
//
COMPOUND: C[C@H](CCC1SC1(C)C)C1CCC2(C)C3=C(CC[C@]12C)[C@@]1(C)CC[C@H](O)C(C)(C)C1CC3 (some centres undefined)
MEAS_VALUE: > 100 µM
//
COMPOUND: CCOC(=O)c1c(SC(=O)c2ccc(OC)cc2)n(-c2ccccc2)c(=S)n(-c2ccccc2)c1=O
MEAS_VALUE: > 100 µM
//
COMPOUND: CC(=O)OC1[C@H](OC(C)=O)C2=C(C)[C@@H](OC(C)=O)C[C@@]2(C(C)(C)O)[C@@H](OC(C)=O)[C@H]2[C@@]1(C)[C@@H](OC(C)=O)CC(OC(C)=O)[C@]21CO1 (some centres undefined)
MEAS_VALUE: > 100 µM
//
COMPOUND: CCCCOC1OC(COC(=O)C(C)C)C(OC(=O)C(C)C)C(O)C1OC1OC(C)C(OC(=O)CCC)C(OC(=O)C(C)C)C1O (centres undefined)
MEAS_VALUE: 27 µM
//
COMPOUND: C/C(=N\O)c1cccc[n+]1Cc1ccccc1
MEAS_VALUE: > 100 µM
//
COMPOUND: NC1(Cc2ccc(Cl)cc2)CCN(c2ncnc3[nH]ccc23)CC1
MEAS_VALUE: 21 µM
//
COMPOUND: COc1ccc(-c2c(-c3ccccc3)c(C)nc3nc(SC)nc(SC)c23)cc1OC
MEAS_VALUE: > 100 µM
//
COMPOUND: COc1ccc(CCN2CCC(CN(C)Cc3cnn(-c4ccccc4)c3)CC2)cc1
MEAS_VALUE: > 100 µM
//
COMPOUND: O=C(CC1C=Cc2ccccc2N1C(=O)c1ccccc1)c1ccccc1 (centres undefined)
MEAS_VALUE: > 100 µM
